Would you kindly list pIC50 for each of these compounds?
- System name: Serine/threonine-protein kinase B-raf (Homo sapiens, UniProt P15056, V600E)
- Sequence (P15056 2-766 V600E limits assumed): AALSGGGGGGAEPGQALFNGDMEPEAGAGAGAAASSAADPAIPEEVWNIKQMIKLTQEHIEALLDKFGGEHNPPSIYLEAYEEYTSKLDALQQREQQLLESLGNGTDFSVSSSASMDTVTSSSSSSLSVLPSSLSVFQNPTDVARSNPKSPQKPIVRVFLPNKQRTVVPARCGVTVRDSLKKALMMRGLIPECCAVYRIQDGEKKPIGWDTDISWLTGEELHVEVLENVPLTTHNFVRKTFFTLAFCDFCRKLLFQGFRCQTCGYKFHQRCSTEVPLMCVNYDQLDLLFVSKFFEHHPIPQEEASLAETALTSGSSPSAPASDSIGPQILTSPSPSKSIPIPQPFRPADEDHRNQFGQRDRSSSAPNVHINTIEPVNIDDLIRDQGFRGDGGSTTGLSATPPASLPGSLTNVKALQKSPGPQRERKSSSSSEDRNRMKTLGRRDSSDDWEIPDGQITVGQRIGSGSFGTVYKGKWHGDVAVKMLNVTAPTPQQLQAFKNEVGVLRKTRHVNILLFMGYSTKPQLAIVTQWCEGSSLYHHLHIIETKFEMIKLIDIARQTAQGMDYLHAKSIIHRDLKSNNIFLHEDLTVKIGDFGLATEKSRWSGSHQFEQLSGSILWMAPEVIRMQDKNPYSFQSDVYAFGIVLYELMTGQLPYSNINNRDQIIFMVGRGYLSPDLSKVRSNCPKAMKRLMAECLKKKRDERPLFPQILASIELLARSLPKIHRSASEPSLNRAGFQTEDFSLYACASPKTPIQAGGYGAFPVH
- Assay notes: Inhibition of human BRAF V600E mutant using myelin basic protein as substrate measured after 40 mins in presence of [gamma33P-ATP] by scintillation counting method
// field semantics: pIC50 = negative decimal log of concentration (mol/L)

### Prompt Returns the measured pIC50 for the input compound. Input: O=C(Nc1cccc(-n2cc(-c3ccncc3)c(-c3cc(O)cc(Cl)c3)n2)c1)c1cccc(C(F)(F)F)c1
### Response 7.42

### Prompt Field entry: COc1cc(Cl)cc(-c2nn(-c3cccc(NC(=O)Nc4ccc(Cl)c(C(F)(F)F)c4)c3)cc2-c2ccncc2)c1
### Response 6.72

### Prompt Now consider COc1cc(Cl)cc(-c2nn(-c3cccc(NC(=O)Nc4cccc(C(F)(F)F)c4)c3)cc2-c2ccncc2)c1 and answer again.
### Response 6.32

### Prompt Would you kindly repeat that for COc1cc(Cl)cc(-c2nn(-c3cccc(NC(=O)c4ccc(Cl)c(Cl)c4)c3)cc2-c2ccncc2)c1 ?
### Response 4.06
